Tested on: KNS-81-FD;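 note: growth inhibition of KNS-81-FD cells, read out with a cell viability assay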
experiment_description: cells
Format: functional, cell-based
test_conditions: Homo sapiens
Description: SANGER: Inhibition of human KNS-81-FD cell growth in a cell viability assay.
pIC50: −log10 of the molar value.
assay_metric: pIC50

Below are worked cases with known answers.
Cc1nc(Nc2ncc(C(=O)Nc3c(C)cccc3Cl)s2)cc(N2CCN(CCO)CC2)n1: < 5.89
CC[C@]1(O)C[C@@H]2CN(CCc3c([nH]c4ccccc34)[C@@](C(=O)OC)(c3cc4c(cc3OC)N(C)[C@H]3[C@@](O)(C(=O)OC)[C@H](OC(C)=O)[C@]5(CC)C=CCN6CC[C@]43[C@@H]65)C2)C1: 7.70
NC(=O)c1ncn([C@@H]2O[C@H](COP(=O)(O)O)[C@@H](O)[C@H]2O)c1N: < 2.70
CCCS(=O)(=O)Nc1ccc(F)c(C(=O)c2c[nH]c3ncc(Cl)cc23)c1F: < 5.00
CC(O)(CS(=O)(=O)c1ccc(F)cc1)C(=O)Nc1ccc(C#N)c(C(F)(F)F)c1 (stereo unspecified) [BICALUTAMIDE]: < 5.99

Now for a further molecule.
Find the recorded pIC50 belonging to O=c1[nH]c2ccccc2n1C1CCN(Cc2ccc(-c3nc4cc5[nH]cnc5cc4nc3-c3ccccc3)cc2)CC1 and report it.
< 5.59

Origin of the recorded values: ChEMBL document CHEMBL1201861
